method description: Half life in mouse hepatocytes
Type: ADME, cell-based, Hepatocyte

| structure notation | half-life / min |
| --- | --- |
| O=C(NCCc1cc(C(=O)NO)no1)c1ccc(Cl)c(Cl)c1 | 22 |

----------
method description: Half life in human liver microsomes in presence of NADPH
Type: ADME, Microsome

| structure notation | half-life [h] |
| --- | --- |
| O=C(NCCc1cc(C(=O)NO)no1)c1ccc(Cl)c(Cl)c1 | 2.25 |
| CC(C)(C)OC(=O)Nc1ccc(-c2cc(C(=O)NCCc3cc(C(=O)NO)no3)no2)cc1 | 1.42 |

----------
system under test: Histone deacetylase 11 (Homo sapiens)
Sequence (Q96DB2 whole entry): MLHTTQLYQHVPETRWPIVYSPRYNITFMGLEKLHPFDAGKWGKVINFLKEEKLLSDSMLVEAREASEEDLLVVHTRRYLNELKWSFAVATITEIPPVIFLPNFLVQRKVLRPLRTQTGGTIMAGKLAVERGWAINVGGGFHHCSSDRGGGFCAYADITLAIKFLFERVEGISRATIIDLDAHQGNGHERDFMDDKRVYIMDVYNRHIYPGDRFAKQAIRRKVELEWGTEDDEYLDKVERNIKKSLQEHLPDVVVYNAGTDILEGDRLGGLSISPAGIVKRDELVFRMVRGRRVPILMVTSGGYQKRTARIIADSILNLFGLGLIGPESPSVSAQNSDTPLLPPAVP
method description: Inhibition of recombinant human HDAC11 expressed in HEK293T/17 cells using Boc-Lys(TFA)-AMC as substrate preincubated for 10 mins followed by substrate addition and measured after 30 mins by fluorescence-based assay

| structure notation | uom | IC50 |
| --- | --- | --- |
| O=C(NO)c1ccc(CNC(=O)c2ccc(Cl)c(Cl)c2)cc1 | nM | 1050 |

----------
system under test: Protein deacetylase HDAC6 (Homo sapiens)
Sequence (Q9UBN7 whole entry, the tested form may be a part): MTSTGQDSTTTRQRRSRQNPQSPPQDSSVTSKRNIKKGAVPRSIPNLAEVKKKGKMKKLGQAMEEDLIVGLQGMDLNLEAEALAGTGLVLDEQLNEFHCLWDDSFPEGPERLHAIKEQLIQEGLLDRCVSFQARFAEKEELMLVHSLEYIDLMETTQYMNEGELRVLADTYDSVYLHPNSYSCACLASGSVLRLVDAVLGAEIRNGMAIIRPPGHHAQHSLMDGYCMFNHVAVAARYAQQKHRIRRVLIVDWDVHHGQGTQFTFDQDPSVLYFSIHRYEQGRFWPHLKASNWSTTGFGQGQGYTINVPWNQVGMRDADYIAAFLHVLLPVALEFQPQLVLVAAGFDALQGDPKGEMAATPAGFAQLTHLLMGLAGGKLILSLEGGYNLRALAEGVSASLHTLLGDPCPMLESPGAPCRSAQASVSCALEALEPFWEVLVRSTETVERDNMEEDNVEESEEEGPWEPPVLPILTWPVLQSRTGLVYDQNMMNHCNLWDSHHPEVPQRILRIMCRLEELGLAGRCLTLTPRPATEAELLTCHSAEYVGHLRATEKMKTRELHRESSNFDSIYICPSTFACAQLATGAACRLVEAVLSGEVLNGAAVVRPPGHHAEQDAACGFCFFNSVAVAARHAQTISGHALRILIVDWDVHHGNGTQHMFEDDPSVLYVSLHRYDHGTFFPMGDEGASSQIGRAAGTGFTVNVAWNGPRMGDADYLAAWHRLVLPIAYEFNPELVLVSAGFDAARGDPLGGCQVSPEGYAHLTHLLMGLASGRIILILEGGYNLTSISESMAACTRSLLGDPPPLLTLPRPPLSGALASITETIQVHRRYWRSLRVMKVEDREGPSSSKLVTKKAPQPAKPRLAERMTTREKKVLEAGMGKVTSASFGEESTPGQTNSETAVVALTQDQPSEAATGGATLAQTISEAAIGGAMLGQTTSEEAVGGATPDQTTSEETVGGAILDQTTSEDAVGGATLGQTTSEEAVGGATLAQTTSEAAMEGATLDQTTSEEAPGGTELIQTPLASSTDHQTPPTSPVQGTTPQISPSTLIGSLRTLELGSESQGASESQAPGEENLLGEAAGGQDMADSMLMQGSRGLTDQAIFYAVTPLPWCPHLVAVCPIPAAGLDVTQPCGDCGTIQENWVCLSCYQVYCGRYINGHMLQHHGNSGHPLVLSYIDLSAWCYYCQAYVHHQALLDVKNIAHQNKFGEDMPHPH
method description: Inhibition of recombinant N-terminal GST-tagged human HDAC6 (1 to 1215 residues) expressed in baculovirus infected sf9 insect cells using RHK-K(Ac)-AMC as substrate after 90 mins by fluorescence assay
pIC50: −log10 of the molar value.
measured metric: pIC50

| structure notation | observed value |
| --- | --- |
| Cc1nc2ccccc2n1Cc1ccc(C(=O)NO)cc1F | 9.09 |

----------
system under test: Histone deacetylase 1 (Homo sapiens)
Sequence (Q13547 whole entry, the tested form may be a part): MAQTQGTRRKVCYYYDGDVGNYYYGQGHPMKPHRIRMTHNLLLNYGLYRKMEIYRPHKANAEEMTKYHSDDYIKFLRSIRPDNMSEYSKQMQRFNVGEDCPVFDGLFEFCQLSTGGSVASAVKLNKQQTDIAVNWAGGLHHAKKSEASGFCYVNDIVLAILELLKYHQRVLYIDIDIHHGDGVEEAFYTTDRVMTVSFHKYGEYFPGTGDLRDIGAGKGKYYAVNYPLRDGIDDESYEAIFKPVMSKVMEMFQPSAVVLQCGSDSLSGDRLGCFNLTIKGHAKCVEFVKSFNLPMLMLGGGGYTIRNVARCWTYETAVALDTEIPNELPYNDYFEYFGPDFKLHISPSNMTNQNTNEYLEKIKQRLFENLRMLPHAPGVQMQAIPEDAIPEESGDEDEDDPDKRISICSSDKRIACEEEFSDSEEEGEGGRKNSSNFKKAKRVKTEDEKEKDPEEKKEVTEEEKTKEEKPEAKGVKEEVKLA
method description: Inhibition of recombinant full length C-terminal His/FLAG tagged human HDAC1 (1 to 482 residues) expressed in baculovirus infected sf9 insect cells using p53 (379 to 382 residues) derived fluorogenic peptide RHKKAc as substrate preincubated for 5 to 10 mins followed by substrate addition and further incubated for 2 hrs by fluorescence assay
pIC50: −log10 of the molar value.

| structure notation | pIC50 |
| --- | --- |
| O=C(NCCc1cc(C(=O)NO)no1)c1ccccc1 | < 4.52 |
| O=C(NO)c1cc(CCCCN2c3ccc(Cl)cc3CCc3cc(Cl)ccc32)on1 | < 4.52 |
| O=C(NO)c1cc(CCCCc2ccc(Cl)c(Cl)c2)on1 | < 4.52 |
| O=C(NO)c1cc(CCCOc2ccc(Cl)c(Cl)c2)on1 | < 4.52 |
| O=C(NO)c1cc(CCCCN2CCCc3cc(Cl)ccc32)on1 | 4.95 |
| CC1(C)CCN(CCCCc2cc(C(=O)NO)no2)c2ccc(Cl)cc21 | < 4.52 |
| O=C(NO)c1ccc(CNC(=O)c2ccc(Cl)c(Cl)c2)cc1 | 6.70 |

----------
Here, each record is paired with measured pIC50 data.
system under test: Protein deacetylase HDAC6 (Homo sapiens)
method description: Inhibition of recombinant N-terminal GST-tagged human HDAC6 (1 to 1215 residues) expressed in baculovirus infected sf9 insect cells using p53 (379 to 382 residues) derived fluorogenic peptide RHKKAc as substrate preincubated for 5 to 10 mins followed by substrate addition and further incubated for 2 hrs by fluorescence assay
pIC50: −log10 of the molar value.

| structure notation | pIC50 |
| --- | --- |
| CC1(C)CCN(CCCCc2cc(C(=O)NO)no2)c2ccc(Cl)cc21 | 5.70 |
| O=C(NO)c1ccc(CNC(=O)c2ccc(Cl)c(Cl)c2)cc1 | 7.55 |
| O=C(NCCc1cc(C(=O)NO)no1)c1ccccc1 | 6.72 |
| O=C(NCCc1cc(C(=O)NO)no1)c1ccc2ccccc2c1 | 8.00 |
| O=C(NO)c1cc(CCCOc2ccc(Cl)c(Cl)c2)on1 | 6.70 |

----------
Ratio IC50 values for the molecules below.
Species: Homo sapiens
method description: Selectivity index, ratio of IC50 for recombinant full length C-terminal His/FLAG tagged human HDAC1 (1 to 482 residues) expressed in baculovirus infected sf9 insect cells using p53 (379 to 382 residues) derived fluorogenic peptide RHKKAc as substrate preincubated for 5 to 10 mins followed by …
measured metric: Ratio IC50

| structure notation | observed value |
| --- | --- |
| O=C(NO)c1cc(CCCOc2ccc(Cl)c(Cl)c2)on1 | > 152 |
| O=C(NO)c1cc(CCCCN2c3ccc(Cl)cc3CCc3cc(Cl)ccc32)on1 | > 22 |
| CC1(C)CCN(CCCCc2cc(C(=O)NO)no2)c2ccc(Cl)cc21 | > 15 |
| O=C(NO)c1cc(CCCCn2ccc3cc(Cl)c(Cl)cc32)on1 | > 7 |
| O=C(NCCc1cc(C(=O)NO)no1)c1ccccc1 | > 155 |

These measurements were taken from ChEMBL document CHEMBL4354804.
